Test system: PPARg DBDmut IVT, anti-PPARg (DBD mutation: PPARg1 K132A/R137A, NR concentration 270 nM)
Test: PBM binding z-score (relative to random genomic background probes); higher = stronger binding; sequences stand for … in GC…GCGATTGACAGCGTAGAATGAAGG
Criterion: PBM binding z-score meeting or surpassing 0.4. Met: 1 (yes). Not met: 0 (no).

>  <primarySequence>
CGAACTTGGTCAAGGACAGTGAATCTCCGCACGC

>  <labelValue>
0 (no)

$$$$
>  <primarySequence>
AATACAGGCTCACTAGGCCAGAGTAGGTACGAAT

>  <labelValue>
1 (yes)

$$$$
>  <primarySequence>
TATACAGGGTCAAAGGCCAGAGCACGAATGTCGA

>  <labelValue>
1 (yes)

$$$$
>  <primarySequence>
ATCTCTAGGTAACCAAGTTCCGTGAATGCCGAAC

>  <labelValue>
1 (yes)

$$$$
>  <primarySequence>
GATCCAGGGTCAAGGCCAGAGTACGCGTATTGAT

>  <labelValue>
0 (no)

$$$$
>  <primarySequence>
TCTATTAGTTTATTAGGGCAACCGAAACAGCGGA

>  <labelValue>
1 (yes)

$$$$
>  <primarySequence>
GCTTACGGGTCAAAGGGTATAGCATGAATAGAAT

>  <labelValue>
1 (yes)

$$$$
>  <primarySequence>
ACTCGGAGGACTAAGGTCAGAGCTACGCCAGTGA

>  <labelValue>
0 (no)

$$$$
>  <primarySequence>
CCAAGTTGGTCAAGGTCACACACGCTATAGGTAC

>  <labelValue>
1 (yes)

$$$$
>  <primarySequence>
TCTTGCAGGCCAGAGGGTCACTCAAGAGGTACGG

>  <labelValue>
0 (no)

$$$$
>  <primarySequence>
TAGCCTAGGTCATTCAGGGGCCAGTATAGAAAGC

>  <labelValue>
0 (no)

$$$$
>  <primarySequence>
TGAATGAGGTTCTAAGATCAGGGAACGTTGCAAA

>  <labelValue>
0 (no)

$$$$
>  <primarySequence>
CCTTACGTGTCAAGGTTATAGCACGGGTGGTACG

>  <labelValue>
0 (no)

$$$$
>  <primarySequence>
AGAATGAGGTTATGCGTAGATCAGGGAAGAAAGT

>  <labelValue>
1 (yes)

$$$$
>  <primarySequence>
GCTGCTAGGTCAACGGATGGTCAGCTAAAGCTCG

>  <labelValue>
0 (no)

$$$$
>  <primarySequence>
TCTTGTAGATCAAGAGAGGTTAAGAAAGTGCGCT

>  <labelValue>
0 (no)

$$$$
>  <primarySequence>
CGTCAAAGTTCGAGGTAACGTAACAGAAAGCAGC

>  <labelValue>
0 (no)

$$$$
>  <primarySequence>
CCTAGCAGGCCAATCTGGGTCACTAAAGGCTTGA

>  <labelValue>
0 (no)

$$$$
>  <primarySequence>
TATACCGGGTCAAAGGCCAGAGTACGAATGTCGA

>  <labelValue>
1 (yes)

$$$$
>  <primarySequence>
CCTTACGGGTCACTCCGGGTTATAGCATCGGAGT

>  <labelValue>
0 (no)

$$$$
>  <primarySequence>
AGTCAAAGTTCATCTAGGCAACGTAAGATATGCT

>  <labelValue>
1 (yes)

$$$$
>  <primarySequence>
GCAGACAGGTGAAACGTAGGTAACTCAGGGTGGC

>  <labelValue>
0 (no)

$$$$
>  <primarySequence>
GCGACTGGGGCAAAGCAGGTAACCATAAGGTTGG

>  <labelValue>
0 (no)

$$$$
>  <primarySequence>
TCGAGTAGGTTTCCAATGGGGCATTCAGCTTTCT

>  <labelValue>
0 (no)

$$$$
>  <primarySequence>
CCTTACGGGTCACTGACAGGTTATAGTATTTGGA

>  <labelValue>
1 (yes)

$$$$
>  <primarySequence>
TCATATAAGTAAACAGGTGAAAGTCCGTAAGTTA

>  <labelValue>
1 (yes)

$$$$
>  <primarySequence>
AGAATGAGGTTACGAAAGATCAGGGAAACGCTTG

>  <labelValue>
0 (no)

$$$$

---

Test system: VDR:RXRa (NR concentration 270 nM, RXRa partner concentration 90 nM)
Test: PBM binding z-score (relative to random genomic background probes); higher = stronger binding; sequences stand for … in GC…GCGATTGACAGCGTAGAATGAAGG
Listed sequences paired with reported PBM binding z-score
reportedMetric: PBM binding z-score

>  <primarySequence>
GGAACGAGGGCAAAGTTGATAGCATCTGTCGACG

>  <targetOrSystem>
VDR:RXRa (NR concentration 270 nM, RXRa partner concentration 90 nM)

>  <reportedMetric>
PBM binding z-score

>  <recordedResult>
1.23

$$$$
>  <primarySequence>
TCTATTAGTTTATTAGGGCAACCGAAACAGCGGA

>  <targetOrSystem>
VDR:RXRa (NR concentration 270 nM, RXRa partner concentration 90 nM)

>  <reportedMetric>
PBM binding z-score

>  <recordedResult>
1.03

$$$$
>  <primarySequence>
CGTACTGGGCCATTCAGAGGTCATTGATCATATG

>  <targetOrSystem>
VDR:RXRa (NR concentration 270 nM, RXRa partner concentration 90 nM)

>  <reportedMetric>
PBM binding z-score

>  <recordedResult>
4.27

$$$$
>  <primarySequence>
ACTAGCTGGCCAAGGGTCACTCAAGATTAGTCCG

>  <targetOrSystem>
VDR:RXRa (NR concentration 270 nM, RXRa partner concentration 90 nM)

>  <reportedMetric>
PBM binding z-score

>  <recordedResult>
2.59

$$$$
>  <primarySequence>
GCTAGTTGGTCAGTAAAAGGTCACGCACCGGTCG

>  <targetOrSystem>
VDR:RXRa (NR concentration 270 nM, RXRa partner concentration 90 nM)

>  <reportedMetric>
PBM binding z-score

>  <recordedResult>
4.36

$$$$
>  <primarySequence>
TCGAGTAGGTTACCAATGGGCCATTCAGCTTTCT

>  <targetOrSystem>
VDR:RXRa (NR concentration 270 nM, RXRa partner concentration 90 nM)

>  <reportedMetric>
PBM binding z-score

>  <recordedResult>
0.0845

$$$$
>  <primarySequence>
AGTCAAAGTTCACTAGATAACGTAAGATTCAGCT

>  <targetOrSystem>
VDR:RXRa (NR concentration 270 nM, RXRa partner concentration 90 nM)

>  <reportedMetric>
PBM binding z-score

>  <recordedResult>
3.5

$$$$
>  <primarySequence>
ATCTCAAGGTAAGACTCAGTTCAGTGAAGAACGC

>  <targetOrSystem>
VDR:RXRa (NR concentration 270 nM, RXRa partner concentration 90 nM)

>  <reportedMetric>
PBM binding z-score

>  <recordedResult>
1.27

$$$$
>  <primarySequence>
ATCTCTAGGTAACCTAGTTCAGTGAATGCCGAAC

>  <targetOrSystem>
VDR:RXRa (NR concentration 270 nM, RXRa partner concentration 90 nM)

>  <reportedMetric>
PBM binding z-score

>  <recordedResult>
1.96

$$$$
>  <primarySequence>
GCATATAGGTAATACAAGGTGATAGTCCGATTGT

>  <targetOrSystem>
VDR:RXRa (NR concentration 270 nM, RXRa partner concentration 90 nM)

>  <reportedMetric>
PBM binding z-score

>  <recordedResult>
-0.0322

$$$$
>  <primarySequence>
TTATATAGGTAAAAGGTGAAAGTCGGTGTGGTAA

>  <targetOrSystem>
VDR:RXRa (NR concentration 270 nM, RXRa partner concentration 90 nM)

>  <reportedMetric>
PBM binding z-score

>  <recordedResult>
1.4

$$$$

---

System: PXR:RXRa (NR concentration 270 nM, RXRa partner concentration 90 nM)
Assay: PBM binding z-score (relative to random genomic background probes); higher = stronger binding; sequences stand for … in GC…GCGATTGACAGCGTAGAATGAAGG
Criterion: PBM binding z-score meeting or surpassing 0.7. Met: yes (1). Not met: no (0).

>  <primarySequence>
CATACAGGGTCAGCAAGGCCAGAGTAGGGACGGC

>  <labelValue>
yes (1)

$$$$
>  <primarySequence>
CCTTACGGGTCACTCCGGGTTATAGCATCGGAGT

>  <labelValue>
yes (1)

$$$$
>  <primarySequence>
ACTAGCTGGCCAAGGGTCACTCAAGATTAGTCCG

>  <labelValue>
yes (1)

$$$$
>  <primarySequence>
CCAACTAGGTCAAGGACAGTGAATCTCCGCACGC

>  <labelValue>
yes (1)

$$$$
>  <primarySequence>
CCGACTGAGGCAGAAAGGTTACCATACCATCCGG

>  <labelValue>
yes (1)

$$$$
>  <primarySequence>
GCAGACATGTGAAACGCAGGTAACTCAGGGTGGC

>  <labelValue>
no (0)

$$$$
>  <primarySequence>
AGTCAAAGTTCCGGACGAGGTAACGTAAAGCACG

>  <labelValue>
no (0)

$$$$
>  <primarySequence>
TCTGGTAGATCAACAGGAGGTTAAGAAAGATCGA

>  <labelValue>
yes (1)

$$$$
>  <primarySequence>
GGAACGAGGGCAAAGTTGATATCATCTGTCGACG

>  <labelValue>
yes (1)

$$$$
>  <primarySequence>
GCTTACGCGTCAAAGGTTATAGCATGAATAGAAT

>  <labelValue>
yes (1)

$$$$
>  <primarySequence>
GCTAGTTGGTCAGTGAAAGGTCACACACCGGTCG

>  <labelValue>
yes (1)

$$$$
>  <primarySequence>
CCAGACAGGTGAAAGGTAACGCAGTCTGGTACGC

>  <labelValue>
yes (1)

$$$$
>  <primarySequence>
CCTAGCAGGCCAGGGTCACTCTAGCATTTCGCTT

>  <labelValue>
yes (1)

$$$$
>  <primarySequence>
TAGCCTAGGTCAGATCGGACCAGTATACGCTATA

>  <labelValue>
no (0)

$$$$
>  <primarySequence>
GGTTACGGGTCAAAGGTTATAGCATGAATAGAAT

>  <labelValue>
yes (1)

$$$$
>  <primarySequence>
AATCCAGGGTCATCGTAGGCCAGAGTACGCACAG

>  <labelValue>
yes (1)

$$$$
>  <primarySequence>
CCTTGCGGGTCAAGGTTATAGCACGGGTGGTACG

>  <labelValue>
yes (1)

$$$$
>  <primarySequence>
CCTAGTTGGTCAGGCGGTCACACACCGGATATGA

>  <labelValue>
no (0)

$$$$
>  <primarySequence>
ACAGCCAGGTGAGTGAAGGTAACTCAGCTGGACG

>  <labelValue>
no (0)

$$$$
>  <primarySequence>
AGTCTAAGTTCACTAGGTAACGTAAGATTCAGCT

>  <labelValue>
yes (1)

$$$$
>  <primarySequence>
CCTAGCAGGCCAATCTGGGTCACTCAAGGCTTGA

>  <labelValue>
yes (1)

$$$$
>  <primarySequence>
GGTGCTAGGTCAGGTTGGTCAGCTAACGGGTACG

>  <labelValue>
no (0)

$$$$
>  <primarySequence>
GCTAGCAGGCCATTTTGGTCACTCAATGACGGGC

>  <labelValue>
no (0)

$$$$
>  <primarySequence>
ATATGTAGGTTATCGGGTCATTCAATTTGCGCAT

>  <labelValue>
yes (1)

$$$$
>  <primarySequence>
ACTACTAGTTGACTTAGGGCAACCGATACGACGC

>  <labelValue>
no (0)

$$$$
>  <primarySequence>
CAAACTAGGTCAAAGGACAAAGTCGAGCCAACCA

>  <labelValue>
yes (1)

$$$$
